# MEASUREMENT_NOTES: In vitro cytotoxic activity, MTT assay
# Assay type: cell-based, human
# MEASUREMENT_CONTEXT: human, U-937 cells, Cytotoxicity LC50, U-937 cells, MTT, ±SD (n = 3)
MEASURED_PARAMETER: CC50 (µM)

{"MOLECULE": "O=C(/C=C/c1ccccc1)c1cc2ccccc2oc1=O", "MEASURED_RESULT": 6.7}
{"MOLECULE": "O=C(/C=C/c1ccc2c(c1)OCO2)c1cc2ccccc2oc1=O", "MEASURED_RESULT": 38}
{"MOLECULE": "O=c1ccc2ccccc2o1 [Coumarin, reference compound]", "MEASURED_RESULT": 12.9}

* * *

# System: intracellular amastigotes of L. panamensis
# MEASUREMENT_NOTES: Anti-leishmanial activity, GFP flow cytometry in infected U-937 cells
# Format: cell-based, Leishmania panamensis
# MEASUREMENT_CONTEXT: Selectivity index = LC50 (U-937)/EC50 (L. panamensis)
Let's look at some compounds and their measured SI (anti-leishmanial).

{"COMPOUND": "O=C(/C=C/c1ccc2c(c1)OCO2)c1cc2ccccc2oc1=O", "VALUE_QUALIFIER": "<", "SI (anti-leishmanial)": 1.90}
{"COMPOUND": "O=C(/C=C/c1cccc(O)c1)c1cc2ccccc2oc1=O", "VALUE_QUALIFIER": "=", "SI (anti-leishmanial)": 2.85}
{"COMPOUND": "O=C(/C=C/c1cccc([N+](=O)[O-])c1)c1cc2ccccc2oc1=O", "VALUE_QUALIFIER": "=", "SI (anti-leishmanial)": 1.73}
{"COMPOUND": "O=C(/C=C/c1ccc(O)cc1)c1cc2ccccc2oc1=O", "VALUE_QUALIFIER": "=", "SI (anti-leishmanial)": 0.91}
{"COMPOUND": "O=c1ccc2ccccc2o1 [Coumarin, reference compound]", "VALUE_QUALIFIER": "=", "SI (anti-leishmanial)": 0.20}
{"COMPOUND": "Cc1cccc(/C=C/C(=O)c2cc3ccccc3oc2=O)c1", "VALUE_QUALIFIER": "=", "SI (anti-leishmanial)": 0.53}
{"COMPOUND": "COc1cccc(/C=C/C(=O)c2cc3ccccc3oc2=O)c1", "VALUE_QUALIFIER": "=", "SI (anti-leishmanial)": 2.31}
{"COMPOUND": "COc1ccc(/C=C/C(=O)c2cc3ccccc3oc2=O)cc1", "VALUE_QUALIFIER": "<", "SI (anti-leishmanial)": 1.89}
{"COMPOUND": "O=C(/C=C/c1ccc([N+](=O)[O-])cc1)c1cc2ccccc2oc1=O", "VALUE_QUALIFIER": "=", "SI (anti-leishmanial)": 3.05}
